# System: K12877-001-R-J1-PDC complex spheroid viability;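 further: tumour cells co-cultured with HUVEC and mesenchymal stem cells in spheroids; spheroids exposed to agents for one week before readout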
# method-summary: Anticancer human tumor K12877-001-R-J1-PDC patient-derived lung adenocarcinoma cell line growth inhibition [RAS]; active means viability on the fitted dose curve at most 10% of control; inactive means the rest
# experimental-parameters: second compound 1 µM; first compound 10 µM
Classes used: YES (active), NO (inactive)

compound	study-target	class
CC(=O)OC12COC1CC(O)C1(C)C(=O)C(O)C3=C(C)C(OC(=O)C(O)C(NC(=O)OC(C)(C)C)c4ccccc4)CC(O)(C(OC(=O)c4ccccc4)C21)C3(C)C (stereo unspecified) + C#Cc1c(F)ccc2cc(O)cc(-c3ncc4c(N5CC6CCC(C5)N6)nc(OCC56CCCN5CC(F)C6)nc4c3F)c12	K12877-001-R-J1-PDC complex spheroid viability	YES
CC(C)NCC(C(=O)N1CCN(c2ncnc3c2C(C)CC3O)CC1)c1ccc(Cl)cc1 (stereo unspecified) + C=CC(=O)N1CCN(c2nc(OCC3CCCN3C)nc3c(F)c(-c4nc(N)cc(C)c4C(F)(F)F)c(Cl)cc23)C(C)C1	K12877-001-R-J1-PDC complex spheroid viability	NO
NC1c2ccccc2OC12CCN(c1cnc3c(N4CCCc5ncccc54)n[nH]c3n1)CC2 (stereo unspecified) + C#Cc1c(F)ccc2cc(O)cc(-c3ncc4c(N5CC6CCC(C5)N6)nc(OCC56CCCN5CC(F)C6)nc4c3F)c12	K12877-001-R-J1-PDC complex spheroid viability	NO
NC1c2ccccc2OC12CCN(c1cnc3c(N4CCCc5ncccc54)n[nH]c3n1)CC2 (stereo unspecified) + C=CC(=O)N1CCN(c2nc(OCC3CCCN3C)nc3c(F)c(-c4nc(N)cc(C)c4C(F)(F)F)c(Cl)cc23)C(C)C1	K12877-001-R-J1-PDC complex spheroid viability	NO
Cc1nc(N2CCC3(CC2)COC(C)C3N)c(CO)nc1Sc1ccnc(N)c1Cl (stereo unspecified) + C=CC(=O)N1CCN(c2nc(OCC3CCCN3C)nc3c(F)c(-c4nc(N)cc(C)c4C(F)(F)F)c(Cl)cc23)C(C)C1	K12877-001-R-J1-PDC complex spheroid viability	NO
CC(C)NCC(C(=O)N1CCN(c2ncnc3c2C(C)CC3O)CC1)c1ccc(Cl)cc1 (stereo unspecified) + C#Cc1c(F)ccc2cc(O)cc(-c3ncc4c(N5CC6CCC(C5)N6)nc(OCC56CCCN5CC(F)C6)nc4c3F)c12	K12877-001-R-J1-PDC complex spheroid viability	NO
C[C@@H](NC(=O)c1ncnc(N)c1Cl)c1ncc(C(=O)Nc2cc(C(F)(F)F)c(Cl)cn2)s1 + C=CC(=O)N1CCN(c2nc(OCC3CCCN3C)nc3c(F)c(-c4nc(N)cc(C)c4C(F)(F)F)c(Cl)cc23)C(C)C1	K12877-001-R-J1-PDC complex spheroid viability	NO
CCC(CC)c1cc(NC2CCC(N)C2)n2nccc2n1 (stereo unspecified) + C#Cc1c(F)ccc2cc(O)cc(-c3ncc4c(N5CC6CCC(C5)N6)nc(OCC56CCCN5CC(F)C6)nc4c3F)c12	K12877-001-R-J1-PDC complex spheroid viability	YES
Cc1nc(N2CCC3(CC2)COC(C)C3N)c(CO)nc1Sc1ccnc(N)c1Cl (stereo unspecified) + C#Cc1c(F)ccc2cc(O)cc(-c3ncc4c(N5CC6CCC(C5)N6)nc(OCC56CCCN5CC(F)C6)nc4c3F)c12	K12877-001-R-J1-PDC complex spheroid viability	NO
CC(Nc1ccc2c(c1)OCCn1cc(N3C(=O)OCC3C(F)F)nc1-2)C(N)=O (stereo unspecified) + C#Cc1c(F)ccc2cc(O)cc(-c3ncc4c(N5CC6CCC(C5)N6)nc(OCC56CCCN5CC(F)C6)nc4c3F)c12	K12877-001-R-J1-PDC complex spheroid viability	NO
CC1(O)CCCC1n1c(=O)c(C(F)F)cc2cnc(NC3CCN(S(C)(=O)=O)CC3)nc21 (stereo unspecified) + C#Cc1c(F)ccc2cc(O)cc(-c3ncc4c(N5CC6CCC(C5)N6)nc(OCC56CCCN5CC(F)C6)nc4c3F)c12	K12877-001-R-J1-PDC complex spheroid viability	YES
